- system: CYP1A2 (Homo sapiens, UniProt P05177)
- Sequence (P05177 whole entry): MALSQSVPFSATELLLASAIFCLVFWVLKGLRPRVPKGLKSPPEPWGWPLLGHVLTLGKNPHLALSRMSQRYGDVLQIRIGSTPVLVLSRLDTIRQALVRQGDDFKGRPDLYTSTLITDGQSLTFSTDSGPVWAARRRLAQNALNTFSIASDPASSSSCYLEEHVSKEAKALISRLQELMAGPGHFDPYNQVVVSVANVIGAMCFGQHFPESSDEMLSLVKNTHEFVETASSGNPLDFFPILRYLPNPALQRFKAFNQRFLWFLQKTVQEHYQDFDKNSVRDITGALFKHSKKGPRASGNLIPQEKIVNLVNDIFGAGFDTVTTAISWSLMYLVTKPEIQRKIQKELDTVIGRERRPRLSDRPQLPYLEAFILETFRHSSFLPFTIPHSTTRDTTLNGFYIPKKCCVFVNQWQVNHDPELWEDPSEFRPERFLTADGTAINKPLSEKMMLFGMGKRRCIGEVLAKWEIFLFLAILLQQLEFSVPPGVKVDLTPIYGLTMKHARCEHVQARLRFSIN
- test: Inhibition of CYP1A2 at 10 uM
- Assay type: ADME
readout kind: inhibition at 10 µM (%)

Would you please look over these solved cases?
[[record]]
structure_string = "COc1cccc(CNC(=O)c2cc3ccc(-c4ccnc(N)n4)cc3[nH]2)c1"
readout_kind = "inhibition at 10 µM"
measurement_units = "%"
reading = 12

[[record]]
structure_string = "COc1ccccc1CNC(=O)c1c[nH]c2cc(-c3cn[nH]c3)ccc12"
readout_kind = "inhibition at 10 µM"
measurement_units = "%"
reading = 89

[[record]]
structure_string = "COc1cccc(CNC(=O)c2c[nH]c3cc(-c4ccncc4)ccc23)c1"
readout_kind = "inhibition at 10 µM"
measurement_units = "%"
reading = 67

[[record]]
structure_string = "COc1cccc(CNC(=O)c2cc3ccc(-c4cn[nH]c4)cc3[nH]2)c1"
readout_kind = "inhibition at 10 µM"
measurement_units = "%"
reading = 42

[[record]]
structure_string = "COc1cccc(CNC(=O)c2c[nH]c3cc(-c4cn[nH]c4)ccc23)c1"
readout_kind = "inhibition at 10 µM"
measurement_units = "%"
reading = 87

[[record]]
structure_string = "COc1cccc([C@@H](C)NC(=O)c2cc3ccc(-c4cn[nH]c4)nc3[nH]2)c1"
readout_kind = "inhibition at 10 µM"
measurement_units = "%"
reading = 13


1: COc1cccc(CNC(=O)c2c[nH]c3nc(-c4cn[nH]c4)ccc23)c1
2: COc1cccc([C@@H](C)NC(=O)c2c[nH]c3cc(-c4cn[nH]c4)ccc23)c1
Identify the item whose inhibition at 10 µM is the smaller number: 1 or 2 Let me know the label of the one you choose.
1
(1: 5%, 2: 39%)

* * *

- test: Volume of distribution at steady state in rat at 1 mg/kg, iv
- Assay type: ADME, organism-based
- Design: dose 1 mg/kg, route intravenous
- test settings: in vivo, read-out: Vdss
readout kind: Vd (L/kg)

A: COc1cccc(CNC(=O)c2c[nH]c3nc(-c4cn[nH]c4)ccc23)c1
B: COc1cccc([C@@H](C)NC(=O)c2cc3ccc(-c4cn[nH]c4)nc3[nH]2)c1
C: COc1cccc(CNC(=O)c2c[nH]c3cc(-c4cn[nH]c4)ccc23)c1
List the compounds shown above again, sorted by falling Vd values. Hello, could you send the labels back in the order asked? Thank you.
B, A, C
(B: 0.94 L/kg, A: 0.52 L/kg, C: 0.26 L/kg)

* * *

- test: Oral bioavailability in rat at 2 mg/kg
- Type: ADME, organism-based
- test settings: in vivo
readout kind: bioavailability (%)

A: COc1cccc([C@@H](C)NC(=O)c2cc3ccc(-c4cn[nH]c4)nc3[nH]2)c1
B: COc1cccc(CNC(=O)c2c[nH]c3nc(-c4cn[nH]c4)ccc23)c1
Identify the item whose bioavailability is the smaller number: A or B Let me know the label of the one you choose.
B

P: COc1cccc(CNC(=O)c2cc3ccc(-c4cn[nH]c4)cc3[nH]2)c1
Q: COc1cccc([C@@H](C)NC(=O)c2c[nH]c3cc(-c4cn[nH]c4)ccc23)c1
Identify the item whose bioavailability is the smaller number: P or Q Let me know the label of the one you choose.
Q
(Q: 9%, P: 28%)

* * *

- test: Cmax in rat at 2 mg/kg, po
- Type: ADME, organism-based
- Set-up: dose 2 mg/kg, route oral
- test settings: in vivo
readout kind: Cmax (nM)

[[record]]
structure_string = "COc1cccc(CNC(=O)c2c[nH]c3cc(-c4cn[nH]c4)ccc23)c1"
reading = 500


1: COc1cccc([C@@H](C)NC(=O)c2cc3ccc(-c4cn[nH]c4)nc3[nH]2)c1
2: COc1cccc(CNC(=O)c2c[nH]c3nc(-c4cn[nH]c4)ccc23)c1
3: COc1cccc([C@@H](C)NC(=O)c2c[nH]c3cc(-c4cn[nH]c4)ccc23)c1
4: COc1cccc(CNC(=O)c2cc3ccc(-c4cn[nH]c4)cc3[nH]2)c1
I would appreciate it if you could sort these 4 molecules by Cmax, starting from the smallest number. Hello, could you send the labels back in the order asked? Thank you.
2, 3, 1, 4
